Entries and their melting point values follow.

compound | readout.value
CN1CCN(c2nccc3c(-c4ccccc4)c[nH]c23)CC1 [14e] | 220 to 221 °C
COc1ccc(Cn2cc(-c3cccc(F)c3)c3ccnc(Nc4cc(OC)c(OC)c(OC)c4)c32)cc1 [10d] | 93 to 94 °C
COc1ccc(Cn2cc(-c3ccccc3)c3ncnc(Nc4ccccc4)c32)cc1 [24a] | 57 to 58 °C
COc1ccc(Cn2cc(-c3cccc(F)c3)c3ccnc(Nc4ccccc4)c32)cc1 [10b] | 165 to 166 °C
Fc1cccc(-c2c[nH]c3c(Nc4ccccc4)ncnc23)c1 [26b] | > 250 °C

[in] Entry COc1ccc(Cn2cc(-c3cccc(F)c3)c3ncnc(Nc4ccccc4)c32)cc1 [24b] : reported melting point = ?
[out] 131 to 132 °C

[in] Can you share its melting point? I mean this compound: COc1ccc(Cn2cc(-c3ccccc3)c3ccnc(Nc4ccccc4)c32)cc1 [10a]
[out] 180 to 181 °C

[in] Name the recorded melting point for COc1cc(Nc2nccc3c(-c4ccccc4)c[nH]c23)cc(OC)c1OC [14c] .
[out] 153 to 154 °C

[in] Need melting point, item COc1cc(Nc2ncnc3c(-c4cccc(F)c4)n[nH]c23)cc(OC)c1OC [35d]
[out] > 250 °C

[in] Fill in the blank: the reported melting point of COc1ccc(Cn2cc(-c3cccc(F)c3)c3ncnc(Nc4cc(OC)c(OC)c(OC)c4)c32)cc1 [24d] is ____.
[out] 96 to 97 °C

[in] Report melting point for COc1ccc(Cn2cc(-c3ccccc3)c3ncnc(Nc4cc(OC)c(OC)c(OC)c4)c32)cc1 [24c] please.
[out] 187 to 188 °C

[in] Record request: melting point value, item COc1cc(Nc2nccc3c(-c4cccc(F)c4)c[nH]c23)cc(OC)c1OC [14d]
[out] 149 to 150 °C

[in] Any idea what melting point was measured for CN1CCN(c2nccc3c(-c4cccc(F)c4)c[nH]c23)CC1 [14f] ?
[out] 209 to 210 °C

[in] What value of melting point has been reported for the following compound? Fc1cccc(-c2n[nH]c3c(Nc4ccccc4)ncnc23)c1 [35b]
[out] 237 to 238 °C

[in] Which melting point value belongs to COc1ccc(Cn2cc(-c3cccc(F)c3)c3ncnc(N4CCN(C)CC4)c32)cc1 [25b] ?
[out] 151 to 152 °C

* * *

system: PC-3 prostate cancer cell line; experiment: MTT cell viability assay, PC-3; type: cell-based; details: Homo sapiens, treatment 72 h and 96 h, mean ± SD of three experiments
pIC50: −log10 of the molar value.
Measured pIC50, listed per entry for reference.

# count of solved cases: 2
molecule | pIC50
COc1cc(Nc2ncnc3c(-c4cccc(F)c4)n[nH]c23)cc(OC)c1OC [35d] | < 5.00
COc1ccc(Cn2cc(-c3cccc(F)c3)c3ncnc(Nc4cc(OC)c(OC)c(OC)c4)c32)cc1 [24d] | < 5.00

Now let's try a different one.
[in] Give the reported pIC50 for COc1ccc(Cn2cc(-c3ccccc3)c3ncnc(N4CCN(C)CC4)c32)cc1 [25a] (system: PC-3 prostate cancer cell line).
[out] < 5.00

* * *

test system: PC-3 prostate cancer cell line; test: MTT cell viability assay, PC-3; format: cell-based; conditions: Homo sapiens, treatment 72 h and 96 h, mean ± SD of three experiments
pIC50: −log10 of the molar value.
The entries below are paired with their reported pIC50.

compound | tested.on | pIC50
COc1ccc(Cn2cc(-c3ccccc3)c3ncnc(Nc4ccccc4)c32)cc1 [24a] | PC-3 prostate cancer cell line | < 5.00

[in] # get_value(readout= pIC50, system= PC-3 prostate cancer cell line) for CN1CCN(c2ncnc3c(-c4cccc(F)c4)c[nH]c23)CC1 [26f]
[out] < 5.00

[in] Lab note: need pIC50 for COc1ccc(Cn2cc(-c3cccc(F)c3)c3ncnc(N4CCN(C)CC4)c32)cc1 [25b] on PC-3 prostate cancer cell line, anyone have it?
[out] < 5.00

[in] Given the entry COc1ccc(Cn2cc(-c3ccccc3)c3ccnc(Nc4ccccc4)c32)cc1 [10a] , what pIC50 was observed with PC-3 prostate cancer cell line?
[out] < 5.00

[in] Lab note: need pIC50 with PC-3 prostate cancer cell line for entry COc1ccc(Cn2cc(-c3cccc(F)c3)c3ccnc(Nc4cc(OC)c(OC)c(OC)c4)c32)cc1 [10d] , please look it up.
[out] < 5.00

[in] Short answer please: pIC50, PC-3 prostate cancer cell line, entry CN1CCN(c2ncnc3c(-c4ccccc4)n[nH]c23)CC1 [35e]
[out] < 5.00

[in] Enter reported pIC50 observed with PC-3 prostate cancer cell line for COc1ccc(Cn2cc(-c3cccc(F)c3)c3ccnc(Nc4ccccc4)c32)cc1 [10b]
[out] < 5.00

[in] So what pIC50 did CN1CCN(c2ncnc3c(-c4cccc(F)c4)n[nH]c23)CC1 [35f] get with PC-3 prostate cancer cell line?
[out] < 5.00

[in] Under PC-3 prostate cancer cell line: pIC50 value of CN1CCN(c2ncnc3c(-c4ccccc4)c[nH]c23)CC1 [26e] ?
[out] < 5.00
